Assay: Plasma carbidopa and levodopa after SINEMET CR alone or after carbidopa pre-dosing
Assay type: in vivo
Details: beagle, dog, plasma, po, plasma; Carbidopa 25 mg pre-dose + SINEMET CR; fed beagle dogs; read-out: AUC0-24
Procedure: The following experiment was designed to determine if effective levodopa concentration in vivo is increased at the presence of a higher ratio of carbidopa to levodopa (as compared to that used in conventional therapy). SINEMET® CR tablets (50 mg carbidopa/200 mg levodopa) were administered to fed beagle dogs either alone or after pre-dosing with 12.5 mg and 25 mg of carbidopa, and plasma concentrations of carbidopa and levodopa were measured over time (data not shown).
Measured Attribute: AUC(0-t) (ng·h/mL)

I = C[C@@](Cc1ccc(O)c(O)c1)(NN)C(=O)O [Carbidopa]
II = N[C@@H](Cc1ccc(O)c(O)c1)C(=O)O [Levodopa, L-3,4-dihydroxyphenylalanine]
Query: Pick one: I or II . Which one has the lower reported AUC(0-t)? Reply briefly: the label of your chosen item.
Response: I
(I: 956 ng·h/mL, II: 7000 ng·h/mL)

The origin of these recorded values is patent US20100316712A1.
